Biological target: S1P1/EDG1 (Homo sapiens, UniProt P21453)
Sequence (P21453 whole entry): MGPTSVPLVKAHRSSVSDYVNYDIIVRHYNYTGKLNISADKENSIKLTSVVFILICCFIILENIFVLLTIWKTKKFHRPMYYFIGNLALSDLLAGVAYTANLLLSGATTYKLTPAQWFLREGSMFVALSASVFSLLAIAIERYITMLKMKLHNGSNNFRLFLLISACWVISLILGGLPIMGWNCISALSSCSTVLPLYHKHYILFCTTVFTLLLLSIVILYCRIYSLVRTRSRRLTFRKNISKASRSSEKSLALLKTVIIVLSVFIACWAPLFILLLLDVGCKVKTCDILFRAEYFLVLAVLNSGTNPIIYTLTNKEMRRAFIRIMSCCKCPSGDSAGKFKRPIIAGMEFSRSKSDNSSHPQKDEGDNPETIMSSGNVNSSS
Experiment: S1P1 CRE-bla CHOK1 reporter assay (inhibition of Forskolin induced cAMP)
Type: cell-based
Details: agonist activity range, Table 2; read-out: S1P1 ACTIVITY
observable: EC50

CC(C)Oc1ccc(-c2nnc(-c3cccc4c3CCC4NCc3ncc[nH]3)s2)cc1C#N (stereo in doubt) :: 0.05 to 0.5 nM
CC(C)Oc1ccc(-c2ncc(-c3cccc4c3CC[C@@H]4NC(=O)N3CC[C@@H](N)C3)s2)cc1C#N [Compound 181] :: > 5 nM
CC(C)Oc1ccc(-c2ccc(-c3cccc4c3CCC4NCCO)s2)cc1C#N (stereo not shown) :: > 5 nM

Turning now to a further record.
Prompt: Which EC50 value is on record for CC(C)Oc1ccc(-c2nnc(-c3cccc4c3CC[C@@H]4NC(=O)N3CC[C@H](O)C3)s2)cc1C#N [Compound 55] ?
Completion: 0.5 to 5 nM

* * *

Answer each item with its documented EC50.
Molecular target: S1P1/EDG1 (Homo sapiens)
Test: S1P1 CRE-bla CHOK1 reporter assay (inhibition of Forskolin induced cAMP)
Type: cell-based
Conditions: agonist activity range, Table 2; read-out: S1P1 ACTIVITY
Method: A mammalian expression plasmid containing S1P1/EDG1 cloned into pcDNA3.1 was purchased from Missouri S&T cDNA Resource Centre. […] Cells were seeded into 384-well black wall/clear bottom plates at 10^4 cells/well/19.5 μl assay media (DMEM-phenol free, 0.5% charcoal/dextran stripped serum, 2 mM glutamine, 0.1 mM NEAA, 1 mM Na-Pyruvate, 25 mM Hepes) and incubated for 18 hrs at 37° C. in 5% CO2. […] Plates were read at Ex:410/Em:458 and Ex:410/Em:522, and the response ratio determined. […]
Counter-ions that a name gives are not always drawn.

CC(C)Oc1ccc(-c2ncc(-c3cccc4c3CCC4N3CC[C@H](O)C3)s2)cc1C#N (stereo partly shown) :: 0.5 to 5 nM
CC(C)Oc1ccc(-c2ncc(-c3cccc4c3CCC4NCC(=O)N3CC[C@H](O)C3)s2)cc1C#N (stereo in doubt) [Compound 102, hydrochloride] :: 0.05 to 0.5 nM
CC(C)Oc1ccc(-c2ncc(-c3cccc4c3CC[C@@H]4NS(C)(=O)=O)s2)cc1C#N :: 0.05 to 0.5 nM

Prompt: Which EC50 value is on record for CC(C)Oc1ccc(-c2nnc(-c3cccc4c3CC[C@@H]4NCc3ncc[nH]3)s2)cc1C#N ?
Completion: 0.05 to 0.5 nM

* * *

Molecular target: S1P1/EDG1 (Homo sapiens)
Experiment: S1P1 CRE-bla CHOK1 reporter assay (inhibition of Forskolin induced cAMP)
Type: cell-based
Details: Table 3; read-out: S1P1 agonist value (EC50)
observable: EC50 (nM)
Answers are plain numbers, in nM.

Please give EC50, item by item, for the list that follows.
1. CC(C)Oc1ccc(-c2nnc(-c3cccc4c3CC[C@@H]4NS(N)(=O)=O)s2)cc1C#N
2. CC(C)Oc1ccc(-c2ncc(-c3cccc4c3CC[C@H]4NC(=O)N3CCOCC3)s2)cc1C#N

Completion:
[0.03, 0.41]

* * *

Molecular target: S1P1/EDG1 (Homo sapiens, UniProt P21453)
Assay: S1P1 CRE-bla CHOK1 reporter assay (inhibition of Forskolin induced cAMP)
Assay type: cell-based
Conditions: agonist activity range, Table 2; read-out: S1P1 ACTIVITY
pEC50: −log10 of the molar value.
Answer each item with its documented pEC50.

Solved entries (count: 10):
CC(C)Oc1ccc(-c2nnc(-c3cccc4c3CC[C@@H]4NCC(=O)N3CCOCC3)s2)cc1C#N [Compound 25] :: 9.30 to 10.30
COCCN(CCOC)[C@H]1CCc2c(-c3nnc(-c4ccc(OC(C)C)c(C#N)c4)s3)cccc21 [Compound 30] :: 8.30 to 9.30
CC(C)Oc1ccc(-c2nnc(-c3cccc4c3CC[C@@H]4NC(=O)N3CC(C(=O)O)C3)s2)cc1C#N [Compound 50] :: 9.30 to 10.30
CC(C)Oc1ccc(-c2cnc(-c3cccc4c3CCC4O)s2)cc1C#N (stereo not drawn) [Compound 222] :: < 8.30
CC(C)Oc1ccc(-c2nnc(-c3cccc4c3CC[C@@H]4NS(=O)(=O)CC(=O)O)s2)cc1C#N [Compound 40] :: 9.30 to 10.30
CC(C)Oc1ccc(-c2nnc(-c3cccc4c3CCC4NCCS(C)(=O)=O)s2)cc1C#N (stereo in doubt) [Compound 32] :: > 10.30
CC(C)Oc1ccc(-c2nnc(-c3cccc4c3CC[C@@H]4NC(=O)CO)s2)cc1C#N [Compound 7] :: > 10.30
CC(C)Oc1ccc(-c2ncc(-c3cccc4c3CC[C@@H]4NC(=O)N3CCC(O)CC3)s2)cc1C#N [Compound 202] :: 8.30 to 9.30
CC(C)Oc1ccc(-c2ncc(-c3cccc4c3CC[C@@H]4NS(=O)(=O)CCN3CC(O)C3)s2)cc1C#N [Compound 150] :: 8.30 to 9.30
CC(C)Oc1ccc(-c2ncc(-c3cccc4c3CC[C@@H]4NS(=O)(=O)CCN3CCC3)s2)cc1C#N [Compound 128] :: < 8.30

Please give pEC50, item by item, for the list that follows.
1. CC(C)Oc1ccc(-c2ncc(-c3cccc4c3CC[C@@H]4NC(=O)N(C)C)s2)cc1C#N [Compound 168]
2. CC(C)Oc1ccc(-c2nnc(-c3cccc4c3CC[C@@H]4NS(=O)(=O)CC(N)=O)s2)cc1C#N [Compound 44]
3. CC(C)Oc1ccc(-c2ncc(-c3cccc4c3CCC4NS(=O)(=O)CC(=O)O)s2)cc1C#N (stereo in doubt) [Compound 158]

Completion:
1. 9.30 to 10.30
2. > 10.30
3. > 10.30

Please give pEC50, item by item, for the list that follows.
1. CC(C)Oc1ccc(-c2ncc(-c3cccc4c3CCC4N3CC(O)C3)s2)cc1C#N (stereo not drawn) [Compound 207]
2. COCC(=O)N[C@H]1CCc2c(-c3nnc(-c4ccc(OC(C)C)c(C#N)c4)s3)cccc21 [Compound 12]

Completion:
["8.30 to 9.30", "8.30 to 9.30"]
